System: 172.9 cells
Experiment: cell viability (CellTiter-Glo) / MTDcc in 172.9 cells
Conditions: mouse, 48 h
Protocol: Criterion for acceptable viability was >70% survival. Cell viability was determined as follows. After exposure to each compound (duplicate wells per compound), 50 μl of CellTitier-Glo Luminescent Cell Viability Assay reagent (G7571, Promega) was added to the 100 μl of media present in each well, and the luminescent signal (reflecting intracellular ATP level) was detected with either a Victor 3-V plate reader (Perkin Elmer) or GloRunner Microplate Luminometer (Turner Biosystems). […]
Where a name gives a salt, the structure may show the parent alone.
assay_readout: MTDcc

Illustrative cases are given below, each with its answer.
CN1CCC(=C2c3ccccc3CC(=O)c3sccc32)CC1; >20 µM
C[C@]12CC[C@@H]3c4ccc(OC(=O)c5ccccc5)cc4CC[C@H]3[C@@H]1CC[C@@H]2O [estradiol benzoate]; >20 µM
CCCCCCCCCCCC1=C(O)C(=O)C=C(O)C1=O; 7.5 µM
CCCCC(CC)CN1CN(CC(CC)CCCC)CC(C)(N)C1 (centres unmarked); >20 µM

Record MTDcc for all entries; do not skip any.
1. C=C(C)[C@@H]1CC[C@]2(C(=O)O)CC[C@]3(C)[C@H](CC[C@@H]4[C@@]5(C)CC[C@H](O)C(C)(C)[C@@H]5CC[C@]43C)[C@@H]12
2. CC(=O)Nc1ccc(OC(=O)c2ccccc2O)cc1 [4-acetamidophenyl salicylate]
3. CN(C)/N=N/c1[nH]cnc1C(N)=O
4. CC/C(=C(\c1ccccc1)c1ccc(OCCN(C)C)cc1)c1ccccc1 [tamoxifen citrate]
5. NC[C@H]1O[C@H](O[C@H]2[C@H](O)[C@@H](O[C@H]3O[C@H](CO)[C@@H](O)[C@H](N)[C@H]3O)[C@H](N)C[C@@H]2N)[C@H](O)[C@@H](O)[C@@H]1O
6. CSc1ccc2c(c1)N(CCC1CCCCN1C)c1ccccc1S2 (centres unmarked)
7. CN(C)CCC=C1c2ccccc2CCc2ccccc21

Outgoing:
[">20 µM", ">20 µM", ">20 µM", "7.5 µM", ">20 µM", "5 µM", ">20 µM"]

Record MTDcc for all entries; do not skip any.
1. CCC(=O)O[C@]1(C(=O)CCl)[C@@H](C)C[C@H]2[C@@H]3CCC4=CC(=O)C=C[C@]4(C)[C@@]3(F)[C@@H](O)C[C@@]21C [clobetasol propionate]
2. CC(C)(CO)[C@@H](O)C(=O)NCCC(=O)O
3. CC(C)(C)c1ccc(C(O)CCCN2CCC(C(O)(c3ccccc3)c3ccccc3)CC2)cc1 (centres unmarked)
4. O=C(N[C@H](CO)[C@H](O)c1ccc([N+](=O)[O-])cc1)C(Cl)Cl
5. CC(NCCc1ccc(O)cc1)C(O)c1ccc(O)cc1 (centres unmarked)
6. Cc1nc2sccn2c(=O)c1CCN1CCC(=C(c2ccc(F)cc2)c2ccc(F)cc2)CC1

Outgoing:
1: >20 µM; 2: >20 µM; 3: 2.5 µM; 4: >20 µM; 5: >20 µM; 6: 12.5 µM

* * *

For each record, write down the corresponding MTDcc.
System: 172.9 cells
Test: cell viability (CellTiter-Glo) / MTDcc in 172.9 cells
Settings: mouse, 48 h
One number for each entry, in µM.

Record MTDcc for all entries; do not skip any.
1. OCCN1CCN(CCCN2c3ccccc3Sc3ccc(C(F)(F)F)cc32)CC1
2. CN(C)CC/C=C1/c2ccccc2Sc2ccc(Cl)cc21

Outgoing:
1. 7.5
2. 17.5

* * *

System: 172.9 cells
Assay: cell viability (CellTiter-Glo) / MTDcc in 172.9 cells
Details: mouse, 48 h
assay_readout: MTDcc

Illustrative cases are given below, each with its answer.
CCOC(=O)NC1=C(N2CC2)C(=O)C(NC(=O)OCC)=C(N2CC2)C1=O; >20 µM
COc1ccc2c(c1)O[C@@H]1COc3cc(OC)c(OC)cc3[C@@H]1C2=O; >20 µM

Kindly review the next molecule as well.
// assay 172.9 cells, entry O=c1c(-c2cc(O)c(O)c(O)c2)coc2cc(O)c(O)c(O)c12 , MTDcc value = >20 µM

This collection of values is drawn from patent US8372808B2.
